Molecular target: 5-HT1F receptor (Homo sapiens)
Experiment: Radioligand ([3H]5-HT) binding to the 5-HT1F receptor subtype
Set-up: expressed in transfected cells; host or cells: Ltk- cells (membranes)
Conditions: Table I, [3H]5-HT displacement, transfected Ltk- cell membranes, 37° C.; read-out: 5-HT1F BINDING Ki
Structures can show the parent of a compound that is named as a salt.
Kindly supply the reported log10(Ki) values for the records listed here.
Would you kindly interpret these values as log10 of Ki expressed in nM?

Some solved cases for reference:
Fc1ccc(CCN2CCC(c3c[nH]c4ccccc34)CC2)cc1 [Example 3, hydrochloride] = 1.49
c1ccc(OCCCN2CCC(c3c[nH]c4ccccc34)CC2)cc1 [Example 41, hydrochloride] = 1.96
COc1ccc2[nH]cc(C3CCN(CCc4ccc(F)cc4)CC3)c2c1 = 1.55
COc1cccc(CCN2CCC(c3c[nH]c4ccccc34)CC2)c1 [Example 12, hydrochloride] = 1.32

Each compound below has a recorded value; state its log10(Ki).
1. Clc1cccc(CCN2CCC(c3c[nH]c4ccccc34)CC2)c1 [Example 6, hydrochloride]
2. Clc1ccc(CCN2CCC(c3c[nH]c4ccccc34)CC2)cc1 [Example 32, hydrochloride]
3. Fc1ccc2[nH]cc(C3CCN(CCc4ccccc4)CC3)c2c1 [Example 25, hydrochloride]
4. Oc1ccc2[nH]cc(C3CCN(CCc4ccccc4)CC3)c2c1 [Example 36, hydrochloride]
5. FC(F)(F)c1cccc(CCN2CCC(c3c[nH]c4ccccc34)CC2)c1
6. Cc1ccccc1CCN1CCC(c2c[nH]c3ccccc23)CC1 [Example 8, hydrochloride]
7. COc1ccccc1CCN1CCC(c2c[nH]c3ccccc23)CC1 [Example 11, hydrochloride]

Reply:
1. 1.07
2. 1.72
3. 1.47
4. 0.40
5. 1.21
6. 1.65
7. 1.53

Each compound below has a recorded value; state its log10(Ki).
1. c1ccc(CCN2CCC(c3c[nH]c4ccccc34)CC2)cc1
2. C1=C(c2c[nH]c3ccccc23)CCN(CCCCc2ccccc2)C1
3. NC(=O)c1ccc2[nH]cc(C3CCN(CCc4ccccc4)CC3)c2c1 [Example 31, hydrochloride]
4. FC(F)(F)c1ccccc1CCN1CCC(c2c[nH]c3ccccc23)CC1
5. Brc1ccc(CCN2CCC(c3c[nH]c4ccccc34)CC2)cc1 [Example 7, hydrochloride]
6. c1ccc(CCCCN2CCC(c3c[nH]c4ccccc34)CC2)cc1 [Example 46, hydrochloride]

Reply:
1. 1.72
2. 2.74
3. 1.57
4. 1.81
5. 1.87
6. 1.31

* * *

Kindly supply the reported Ki values for the records listed here.
Biological target: 5-HT1F receptor (Homo sapiens, UniProt P30939)
Sequence (P30939 whole entry): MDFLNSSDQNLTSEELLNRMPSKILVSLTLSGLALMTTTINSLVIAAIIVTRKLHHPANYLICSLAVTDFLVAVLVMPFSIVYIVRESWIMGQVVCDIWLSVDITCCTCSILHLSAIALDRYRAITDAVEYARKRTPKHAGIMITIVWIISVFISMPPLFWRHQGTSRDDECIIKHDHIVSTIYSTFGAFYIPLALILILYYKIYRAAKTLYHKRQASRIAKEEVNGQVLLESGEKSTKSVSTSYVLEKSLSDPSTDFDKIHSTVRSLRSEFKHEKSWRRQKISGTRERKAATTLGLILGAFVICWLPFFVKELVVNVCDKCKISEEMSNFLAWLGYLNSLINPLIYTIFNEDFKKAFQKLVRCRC
Test: Radioligand ([3H]5-HT) binding to the 5-HT1F receptor subtype
Design: expressed in transfected cells; host or cells: Ltk- cells (membranes)
Conditions: Table I, [3H]5-HT displacement, transfected Ltk- cell membranes, 37° C.; read-out: 5-HT1F BINDING Ki
One number for each entry, in µM.

c1ccc2c(CCN3CCC(c4c[nH]c5ccccc45)CC3)cccc2c1 = 0.0767
C1=C(c2c[nH]c3ccccc23)CCN(CCOc2ccccc2)C1 = 0.413

Next up:
Task item: Looking for the measured Ki of COc1ccc(CCN2CCC(c3c[nH]c4ccc(OC)cc34)CC2)cc1 , can you help?
Reply: 0.128

* * *

Molecular target: 5-HT1F receptor (Homo sapiens)
Assay: Radioligand ([3H]5-HT) binding to the 5-HT1F receptor subtype
Design: expressed in transfected cells; host or cells: Ltk- cells (membranes)
Settings: Table I, [3H]5-HT displacement, transfected Ltk- cell membranes, 37° C.; read-out: 5-HT1F BINDING Ki
Structures can show the parent of a compound that is named as a salt.
Measured Parameter: Ki
Hey, just the number and the unit after it is fine.

Some solved cases for reference:
C1=C(c2c[nH]c3ccccc23)CCN(CCCOc2ccccc2)C1 = 136 nM
CCOc1ccc(CCN2CCC(c3c[nH]c4ccccc34)CC2)cc1 [Example 14, hydrochloride] = 185 nM
Clc1ccccc1CCN1CCC(c2c[nH]c3ccccc23)CC1 [Example 5, hydrochloride] = 35.2 nM

Each molecule below has a recorded value; state its Ki.
1. c1ccc(SCCN2CCC(c3c[nH]c4ccccc34)CC2)cc1
2. c1ccc(CN2CCC(c3c[nH]c4ccccc34)CC2)cc1
3. C1=C(c2c[nH]c3ccccc23)CCN(Cc2ccccc2)C1 [Example 44, hydrochloride]

Reply:
1: 342 nM; 2: 240 nM; 3: 396 nM

Each molecule below has a recorded value; state its Ki.
1. c1ccc(OCCN2CCC(c3c[nH]c4ccccc34)CC2)cc1 [Example 40, hydrochloride]
2. Fc1ccccc1CCN1CCC(c2c[nH]c3ccccc23)CC1 [Example 1, hydrochloride]
3. c1ccc(CCN2CCC(c3c[nH]c4ccc(OCc5ccccc5)cc34)CC2)cc1 [Example 29, hydrochloride]

Reply:
1: 191 nM; 2: 29.5 nM; 3: 17.2 nM
